Reference source for all entries: patent US12486253B2

Biological target: BRAF V600E (Homo sapiens, UniProt P15056, V600E)
Sequence (P15056 whole entry V600E): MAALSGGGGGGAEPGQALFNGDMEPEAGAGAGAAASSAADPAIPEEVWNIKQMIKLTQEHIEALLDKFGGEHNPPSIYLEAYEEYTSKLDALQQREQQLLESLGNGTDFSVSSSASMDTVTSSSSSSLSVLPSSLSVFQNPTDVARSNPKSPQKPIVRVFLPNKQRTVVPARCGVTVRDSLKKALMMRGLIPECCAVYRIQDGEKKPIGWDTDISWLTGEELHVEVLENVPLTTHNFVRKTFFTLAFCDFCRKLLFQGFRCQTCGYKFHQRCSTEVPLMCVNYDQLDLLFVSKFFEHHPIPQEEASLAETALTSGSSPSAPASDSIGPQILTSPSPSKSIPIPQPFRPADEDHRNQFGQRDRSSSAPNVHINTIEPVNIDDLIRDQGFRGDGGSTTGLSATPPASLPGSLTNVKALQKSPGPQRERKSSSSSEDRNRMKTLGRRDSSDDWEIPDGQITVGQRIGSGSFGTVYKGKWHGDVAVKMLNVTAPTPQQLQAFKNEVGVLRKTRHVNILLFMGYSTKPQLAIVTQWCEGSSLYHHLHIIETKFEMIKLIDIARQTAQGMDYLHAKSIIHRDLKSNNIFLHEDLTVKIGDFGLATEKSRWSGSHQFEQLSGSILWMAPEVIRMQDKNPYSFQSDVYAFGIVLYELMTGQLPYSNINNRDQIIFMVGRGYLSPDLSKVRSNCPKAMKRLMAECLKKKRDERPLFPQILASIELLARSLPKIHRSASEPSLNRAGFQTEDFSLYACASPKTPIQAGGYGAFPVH
Experiment: HiBiT cellular BRAF^V600E degradation assay
Format: cell-based
Conditions: A375.10 cells, 24 h; residual protein remaining in the cell; read-out: HiBit 24 h Emax
Reported Emax values follow for various compounds
Please respond with the number in % and leave the unit unwritten.

Example entries and their recorded answers appear below.
>  <Compound>
CCN(C)S(=O)(=O)Nc1ccc(F)c(Oc2ccc3ncn([C@H]4[C@@H]5CN(c6ccc(C(=O)NC7CCN(c8ccc(NC9CCC(=O)NC9=O)cc8F)CC7)cc6)C[C@@H]54)c(=O)c3c2)c1C#N (stereo partly shown)

>  <Emax (%)>
13.6

$$$$
>  <Compound>
CCN(C)S(=O)(=O)Nc1ccc(F)c(Oc2ccc3ncc([C@@H]4COC5(CCN(C(=O)CC6(O)CCN(c7cc8c(cc7F)c(N7CCC(=O)NC7=O)nn8C)CC6)CC5)C4)c(OC)c3c2)c1C#N (single isomer, unassigned)

>  <Emax (%)>
28.2

$$$$
>  <Compound>
CN(CC(F)F)S(=O)(=O)Nc1ccc(F)c(Oc2ccc3ncn(-c4cnc(N5CCN(C(=O)CN6CCC(c7ccc(N[C@H]8CCC(=O)NC8=O)cc7F)CC6)CC5)nc4)c(=O)c3c2)c1C#N

>  <Emax (%)>
8.26

$$$$
>  <Compound>
CCN(C)S(=O)(=O)Nc1ccc(F)c(Oc2ccc3ncn(CCC(C)C4CCN(C(=O)CN5CCC(c6ccc(NC7CCC(=O)NC7=O)cc6F)CC5)CC4)c(=O)c3c2)c1C#N (stereo not shown)

>  <Emax (%)>
9.52

$$$$
>  <Compound>
CCN(C)S(=O)(=O)Nc1ccc(F)c(Oc2ccc3ncn([C@@H]4COC5(CCN(C(=O)CN6CCC(c7ccc(NC8CCC(=O)NC8=O)cc7F)CC6)CC5)C4)c(=O)c3c2Cl)c1C#N (single isomer, unassigned)

>  <Emax (%)>
9.7

$$$$

Challenge: For BRAF V600E (Homo sapiens, UniProt P15056, V600E), give the measured Emax of the entry CCN(C)S(=O)(=O)Nc1ccc(F)c(Oc2ccc3ncn(-c4cnc(N5CCN(C(=O)CC6(O)CCN(c7cc8c(cc7F)c(N7CCC(=O)NC7=O)nn8C)CC6)CC5)nc4)c(=O)c3c2)c1C#N
Response given: 27.9

Challenge: Return reported Emax for target or system BRAF V600E (Homo sapiens, UniProt P15056, V600E), item CCN(C)S(=O)(=O)Nc1ccc(F)c(Oc2ccc3ncn(C4CCOC5(CCN(C(=O)CN6CCC(c7ccc(NC8CCC(=O)NC8=O)cc7F)CC6)CC5)C4)c(=O)c3c2)c1C#N (stereo not shown) .
Response given: 12.1

Challenge: Provide Emax, recorded with BRAF V600E (Homo sapiens, UniProt P15056, V600E), of CCN(C)S(=O)(=O)Nc1ccc(F)c(Oc2ccc3ncc(-n4cc(N5CCCN(C(=O)CN6CCC(c7ccc(NC8CCC(=O)NC8=O)cc7F)CC6)CC5)cn4)nc3c2)c1C#N (stereo not shown)
Response given: 7.82

Challenge: Supply Emax measured with BRAF V600E (Homo sapiens, UniProt P15056, V600E) for N#Cc1c(NS(=O)(=O)N2CC[C@@H](F)C2)ccc(F)c1Oc1ccc2ncn([C@H]3COC4(CCN(C(=O)CN5CCC(c6ccc(NC7CCC(=O)NC7=O)cc6F)CC5)CC4)C3)c(=O)c2c1 (stereo partly shown) .
Response given: 10.8

Challenge: Specify the recorded Emax for CCN(C)S(=O)(=O)Nc1ccc(F)c(Oc2ccc3ncn(C4CCC5(CC4)CCN(C(=O)CN4CCC(c6ccc7c(C8CCC(=O)NC8=O)nn(C)c7c6)CC4)CC5)c(=O)c3c2)c1C#N (stereo not shown) , system: BRAF V600E (Homo sapiens, UniProt P15056, V600E).
Response given: 21

Challenge: Quote BRAF V600E (Homo sapiens, UniProt P15056, V600E) Emax for entry CCN(C)S(=O)(=O)Nc1ccc(F)c(Oc2ccc3ncn(C4CCC5(CC4)CCN(C(=O)CN4CCC(c6ccc(NC7CCC(=O)NC7=O)cc6F)CC4)CC5)c(=O)c3c2)c1C#N (stereo not shown) .
Response given: 12.1
